# Test system: Penicillium chrysogenum
# PROTOCOL DESCRIPTION: Antifungal activity against Penicillium chrysogenum MTCC 161 assessed as growth inhibition at 1250 ug/mL after 48 hr by agar diffusion method
# Assay type: functional
# CONDITIONS: MTCC 161, 48 h, read-out: DIZ
MEASUREMENT NAME: zone of inhibition at 1250 µg/mL
Put down the number, then write its unit next to it.

MOLECULE | TARGET UNDER TEST | zone of inhibition at 1250 µg/mL
CC1SCC(=O)N1c1nnc2c3ccccc3nc-2s1 (stereo unspecified) | Penicillium chrysogenum | 17 mm

According to the records, this molecule CC1SCC(=O)N1c1nnc2c3cc(Cl)ccc3nc-2s1 (stereo unspecified) displays zone of inhibition at 1250 µg/mL of 20 mm

get_value(item= O=C1CSC(c2cccc3ccccc23)N1c1nnc2c3cc(Cl)ccc3nc-2s1 (stereo unspecified) , readout=zone of inhibition at 1250 µg/mL) returns 18 mm

// sample O=C1CSC(c2ccccn2)N1c1nnc2c3ccccc3nc-2s1 (stereo unspecified) , its zone of inhibition at 1250 µg/mL was 17 mm

Just so you know, measured zone of inhibition at 1250 µg/mL for O=C1CSC(c2cccc3ccccc23)N1c1nnc2c3ccccc3nc-2s1 (stereo unspecified) came out at 15 mm

Reported zone of inhibition at 1250 µg/mL for O=C1CSC(c2ccccn2)N1c1nnc2c3cc(Cl)ccc3nc-2s1 (stereo unspecified) was 20 mm

---

# Test system: Aspergillus niger
# PROTOCOL DESCRIPTION: Antifungal activity against Aspergillus niger MTCC 2546 assessed as growth inhibition at 750 ug/mL after 48 hr by agar diffusion method
# Format: functional
# CONDITIONS: MTCC 2546, 48 h, read-out: DIZ
This section presents compounds with their documented zone of inhibition at 750 µg/mL values.
# value in mm; strip the unit string

Worked examples follow.
COMPOUND | MEASUREMENT NAME | UNITS TEXT | NUMERIC READOUT
O=C1CSC(c2ccccn2)N1c1nnc2c3cc(Cl)ccc3nc-2s1 (stereo unspecified) | zone of inhibition at 750 µg/mL | mm | 15
CC1SCC(=O)N1c1nnc2c3cc(Cl)ccc3nc-2s1 (stereo unspecified) | zone of inhibition at 750 µg/mL | mm | 13
O=C1CSC(c2cccc3ccccc23)N1c1nnc2c3ccccc3nc-2s1 (stereo unspecified) | zone of inhibition at 750 µg/mL | mm | 10
CC1SCC(=O)N1c1nnc2c3ccccc3nc-2s1 (stereo unspecified) | zone of inhibition at 750 µg/mL | mm | 11
O=C1CSC(c2cccc3ccccc23)N1c1nnc2c3cc(Cl)ccc3nc-2s1 (stereo unspecified) | zone of inhibition at 750 µg/mL | mm | 13

For O=C1CSC(c2ccccn2)N1c1nnc2c3ccccc3nc-2s1 (stereo unspecified) the compound record lists zone of inhibition at 750 µg/mL as 14

---

# System: Bacillus subtilis
# PROTOCOL DESCRIPTION: Antibacterial activity against Bacillus subtilis MTCC 441 assessed as growth inhibition at 750 ug/mL after 48 hr by agar diffusion method
# Type: functional
# CONDITIONS: MTCC 441, 48 h, read-out: DIZ
MEASUREMENT NAME: zone of inhibition at 750 µg/mL (mm)
Please reply with the bare figure in mm and do not write the unit itself.

COMPOUND | TARGET UNDER TEST | UNITS TEXT | zone of inhibition at 750 µg/mL
O=C1CSC(c2cccc3ccccc23)N1c1nnc2c3ccccc3nc-2s1 (stereo unspecified) | Bacillus subtilis | mm | 15

// O=C1CSC(c2ccccn2)N1c1nnc2c3ccccc3nc-2s1 (stereo unspecified) : zone of inhibition at 750 µg/mL value = 13

Form: compound = O=C1CSC(c2ccccn2)N1c1nnc2c3cc(Cl)ccc3nc-2s1 (stereo unspecified) ; zone of inhibition at 750 µg/mL = 14

What the record says about CC1SCC(=O)N1c1nnc2c3cc(Cl)ccc3nc-2s1 (stereo unspecified) : zone of inhibition at 750 µg/mL is 17

The compound listed as CC1SCC(=O)N1c1nnc2c3ccccc3nc-2s1 (stereo unspecified) has a reported zone of inhibition at 750 µg/mL of 18

Lab book: zone of inhibition at 750 µg/mL of O=C1CSC(c2cccc3ccccc23)N1c1nnc2c3cc(Cl)ccc3nc-2s1 (stereo unspecified) noted as 15

---

# Test system: Micrococcus luteus
# PROTOCOL DESCRIPTION: Antibacterial activity against Micrococcus luteus MTCC 1538 assessed as growth inhibition at 500 ug/mL after 48 hr by agar diffusion method
# Type: functional
# CONDITIONS: MTCC 1538, 48 h, read-out: DIZ
# reported zone of inhibition at 500 µg/mL; entries follow
# number only, unit mm dropped from output

MOLECULE | MEASUREMENT NAME | UNITS TEXT | NUMERIC READOUT
CC1SCC(=O)N1c1nnc2c3ccccc3nc-2s1 (stereo unspecified) | zone of inhibition at 500 µg/mL | mm | 12
O=C1CSC(c2ccccn2)N1c1nnc2c3ccccc3nc-2s1 (stereo unspecified) | zone of inhibition at 500 µg/mL | mm | 11
CC1SCC(=O)N1c1nnc2c3cc(Cl)ccc3nc-2s1 (stereo unspecified) | zone of inhibition at 500 µg/mL | mm | 10

Reported zone of inhibition at 500 µg/mL ( O=C1CSC(c2ccccn2)N1c1nnc2c3cc(Cl)ccc3nc-2s1 (stereo unspecified) ) = 8

Lab note: O=C1CSC(c2cccc3ccccc23)N1c1nnc2c3ccccc3nc-2s1 (stereo unspecified) gave zone of inhibition at 500 µg/mL of 8

Sample O=C1CSC(c2cccc3ccccc23)N1c1nnc2c3cc(Cl)ccc3nc-2s1 (stereo unspecified) ; zone of inhibition at 500 µg/mL observed: 8

---

Listing of recorded zone of inhibition at 250 µg/mL by entry.
# Test system: Escherichia coli
# PROTOCOL DESCRIPTION: Antibacterial activity against Escherichia coli MTCC 1573 assessed as growth inhibition at 250 ug/mL after 48 hr by agar diffusion method
# Format: functional
# CONDITIONS: MTCC 1573, 48 h, read-out: DIZ
API: value field is a number in mm; no unit string.

Examples with their reported zone of inhibition at 250 µg/mL follow.
COMPOUND | UNITS TEXT | zone of inhibition at 250 µg/mL
CC1SCC(=O)N1c1nnc2c3cc(Cl)ccc3nc-2s1 (stereo unspecified) | mm | 11
O=C1CSC(c2ccccn2)N1c1nnc2c3ccccc3nc-2s1 (stereo unspecified) | mm | 9
O=C1CSC(c2cccc3ccccc23)N1c1nnc2c3cc(Cl)ccc3nc-2s1 (stereo unspecified) | mm | 10
O=C1CSC(c2ccccn2)N1c1nnc2c3cc(Cl)ccc3nc-2s1 (stereo unspecified) | mm | 11
CC1SCC(=O)N1c1nnc2c3ccccc3nc-2s1 (stereo unspecified) | mm | 10

In the following, a different compound is considered.
Note to self: zone of inhibition at 250 µg/mL of O=C1CSC(c2cccc3ccccc23)N1c1nnc2c3ccccc3nc-2s1 (stereo unspecified) with Escherichia coli was 10

---

# Test system: Pseudomonas fluorescens
# PROTOCOL DESCRIPTION: Antibacterial activity against Pseudomonas fluorescens MTCC 2421 assessed as growth inhibition at 250 ug/mL after 48 hr by agar diffusion method
# Format: functional
# CONDITIONS: MTCC 2421, 48 h, read-out: DIZ
MEASUREMENT NAME: zone of inhibition at 250 µg/mL (mm)
# unit: mm | format: bare number

Field zone of inhibition at 250 µg/mL (entry CC1SCC(=O)N1c1nnc2c3cc(Cl)ccc3nc-2s1 (stereo unspecified) ) reads 7

Form field zone of inhibition at 250 µg/mL, entry O=C1CSC(c2ccccn2)N1c1nnc2c3cc(Cl)ccc3nc-2s1 (stereo unspecified) : 8

Input CC1SCC(=O)N1c1nnc2c3ccccc3nc-2s1 (stereo unspecified) . Output zone of inhibition at 250 µg/mL: 10

Reported zone of inhibition at 250 µg/mL ( O=C1CSC(c2ccccn2)N1c1nnc2c3ccccc3nc-2s1 (stereo unspecified) ) = 10

The value of zone of inhibition at 250 µg/mL measured for the compound O=C1CSC(c2cccc3ccccc23)N1c1nnc2c3cc(Cl)ccc3nc-2s1 (stereo unspecified) turned out to be 11

Reported zone of inhibition at 250 µg/mL ( O=C1CSC(c2cccc3ccccc23)N1c1nnc2c3ccccc3nc-2s1 (stereo unspecified) ) = 10

---

Documented MIC across a set of compounds
# Tested on: Bacillus pumilus
# PROTOCOL DESCRIPTION: Antibacterial activity against Bacillus pumilus MTCC 1456 assessed as growth inhibition after 24 hr by tube dilution method
# Type: functional
# CONDITIONS: MTCC 1456, 24 h
Output spec: scalar in µg/mL, unitless text.

COMPOUND | MIC [µg/mL]
CCn1cc(C(=O)O)c(=O)c2cc(F)c(N3CCNCC3)cc21 | 1.25
O=C1CSC(c2ccccn2)N1c1nnc2c3cc(Cl)ccc3nc-2s1 (configuration not stated) | 50
CC1SCC(=O)N1c1nnc2c3ccccc3nc-2s1 (configuration not stated) | 30
O=C1CSC(c2ccccn2)N1c1nnc2c3ccccc3nc-2s1 (configuration not stated) | 50
CC1SCC(=O)N1c1nnc2c3cc(Cl)ccc3nc-2s1 (configuration not stated) | 40

Recorded MIC (compound O=C1CSC(c2cccc3ccccc23)N1c1nnc2c3cc(Cl)ccc3nc-2s1 (configuration not stated) ): 40

Briefly, MIC measured for O=C1CSC(c2cccc3ccccc23)N1c1nnc2c3ccccc3nc-2s1 (configuration not stated) : 20
